// provenance: PubChem BioAssay

- assay-procedure: E. coli acrAB mutant growth effects, primary screen, E. coli filamentation inducers, strain DRC39, OD650, 48 h (AID 1179);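 also: screen aims at cell division blockers that make cells filament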
- condition-info: E. coli DRC39 delta-acrAB growth, higher = more signal, called active from +8 up or from −8 down
test-readout: z-score
One number for each entry.

A selection of reference data follows.
>  <compound>
CN1C(=O)[C@]2(Cc3ccccc3)N=C(c3ccc(OCCCO)cc3)O[C@@H]2c2ccccc21

>  <z-score>
0.0422

$$$$
>  <compound>
CN1C(=O)C2C=CC(C(O)C3CCCCC3)N(Nc3ccc([N+](=O)[O-])cc3[N+](=O)[O-])C2C1=O (stereo unspecified)

>  <z-score>
-0.556

$$$$
>  <compound>
C=CCOC(=O)[C@H]1[C@@H]2C(=O)O[C@@H](c3ccccc3)[C@@H](c3ccccc3)N2[C@@H](c2ccc(OCCOC(=O)[C@H]3C[C@H]4C(=O)N5CCC[C@H]5C(=O)N4[C@H]3c3ccc(O)cc3)cc2)[C@]12C(=O)Nc1ccccc12

>  <z-score>
-0.13

$$$$
>  <compound>
C=CCC(OC(C)=O)[C@@H]1[C@@H](N(Cc2ccc(-c3cccc(C(F)(F)F)c3)o2)C(=O)Cc2ccc(F)cc2)c2cc(OCCCO)ccc2N1C(=O)Cc1ccc(OC)cc1 (stereo partly specified)

>  <z-score>
0.671

$$$$
>  <compound>
C[N+](C)(C)CCCC[C@@H]1NC(=O)[C@@H]2C[C@H](C(=O)NCCCCCN)[C@H](c3cccc(OCCO)c3)N2C1=O

>  <z-score>
0.597

$$$$
>  <compound>
CC(C)C[C@@H]1NC(=O)[C@@H]2C[C@H](C(=O)NCCCCCN)[C@H](c3cccc(OCCO)c3)N2C1=O

>  <z-score>
1.75

$$$$
>  <compound>
CN(C)C(=O)[C@]1(Cc2ccccc2CN=[N+]=[N-])N=C(c2ccc(OCCCO)cc2)O[C@@H]1c1ccccc1CN=[N+]=[N-]

>  <z-score>
-0.719

$$$$
>  <compound>
COc1ccc(C(O)C2C=CC3C(=O)N(c4ccccc4)C(=O)C3N2Nc2ccccc2F)cc1OCc1ccccc1 (stereo unspecified)

>  <z-score>
0.226

$$$$
>  <compound>
O=C1OCCC/C=C\[C@H]2OC34C=CCN(c5ccc6ccccc6c5)C(=O)[C@H]3N(CCCCCCO)C(=O)[C@@H]4C12 (stereo partly specified)

>  <z-score>
1.01

$$$$
>  <compound>
COCCCNC(=O)[C@@]1(Cc2ccccc2)N=C(c2ccc(OCCCO)cc2)O[C@H]1c1ccccc1

>  <z-score>
-0.456

$$$$

Fill in z-score for each of the 5 compounds listed.
1. COCCOC(=O)N1C(=O)[C@@]2(c3cc(C#CC4=CCCCC4)ccc31)[C@H](C(=O)N1CCc3cc(OC)c(OC)cc3C1)[C@H]1C(=O)O[C@H](c3ccccc3)[C@H](c3ccccc3)N1[C@@H]2c1ccc(OCCO)cc1
2. O=C1OCCC/C=C\[C@H]2OC34C=CCN(CCN5CCOCC5)C(=O)[C@H]3N(CCCO)C(=O)[C@@H]4C12 (stereo partly specified)
3. O=C1O[C@H](c2ccccc2)[C@H](c2ccccc2)N2[C@H]1[C@@H](C(=O)Nc1nc3ccccc3s1)[C@]1(C(=O)Nc3ccc(C#CC4(O)CCCCCC4)cc31)[C@H]2c1ccc(OCCO)cc1
4. C[N+](C)(C)CCCCNC(=O)[C@H]1C[C@H]2C(=O)N[C@@H](Cc3ccccc3)C(=O)N2[C@H]1c1ccc(O)cc1
5. COCC(=C=CC[C@@H](O)c1ccccc1OCCO)C[C@@H](O)c1cc(Cl)cc(Cl)c1O

Resp:
1. -0.316
2. -0.125
3. -0.706
4. 1.17
5. -0.424

# map each compound to its z-score
1. COc1cc(OC)c(C(O)C2C=CC3C(=O)NC(=O)C3N2Nc2ccc(Cl)cc2Cl)cc1Br (stereo unspecified)
2. CCCCCN1CC=CC23O[C@@H]4/C=C\CCCOC(=O)C4[C@H]2C(=O)N(CCCO)[C@@H]3C1=O (stereo partly specified)
3. COCCn1c(C(=O)N2CCCC2)cc2c1C[C@H]1CN(C(=O)c3ccccc3)[C@@](Cc3ccc(F)cc3)(C(=O)OC)[C@@H]21

Resp:
1: -1.06; 2: 0.025; 3: -0.622

Items follow; give z-score for each.
1. Cc1ccc(C(C)CC(O)C2C=CC3C(=O)N(C)C(=O)C3N2NC(=O)OC(C)(C)C)o1 (stereo unspecified)
2. O=C1OCC=C[C@H]2OC34C=CCN(CCN5CCOCC5)C(=O)[C@H]3N(CCCO)C(=O)[C@@H]4[C@@H]12 (stereo partly specified)
3. CCOc1cc(C(O)C2C=CC3C(=O)N(c4ccccc4)C(=O)C3N2Nc2ccccc2)ccc1O (stereo unspecified)

Resp:
1: -0.354; 2: -1.15; 3: -0.649
